assay: Visually estimated solubility of Form 1 in an array of solvents; assay type: physicochemical; conditions: ethyl acetate, 40 °C, organic solvent or mixture, thermodynamic from solid; read-out: Solubility at 40° C.
MEASUREMENT_TYPE: solubility

Entry [2H]C1([2H])C(=O)NC(=O)[C@@]([2H])(N2Cc3c(N)cccc3C2=O)C1([2H])[2H] (single isomer, unassigned) [Form 1] : reported solubility = ? < 1 mg/mL

====

experiment: Visually estimated solubility of Form 1 in an array of solvents; format: physicochemical; conditions: organic solvent or mixture, thermodynamic from solid; Dichloromethane; 20° C.; read-out: Solubility at RT
MEASUREMENT_TYPE: solubility

Entry [2H]C1([2H])C(=O)NC(=O)[C@@]([2H])(N2Cc3c(N)cccc3C2=O)C1([2H])[2H] (single isomer, unassigned) [Form 1] : reported solubility = ? < 1000 µg/mL
